Test target: AxCT mask27 EGFR EH104 L043 version 1
Measured Percent cleavage by item
In your response, the unit should come after the numeric value.

Reference set (3 entries):
protein="Neutrophil Elastase (protein) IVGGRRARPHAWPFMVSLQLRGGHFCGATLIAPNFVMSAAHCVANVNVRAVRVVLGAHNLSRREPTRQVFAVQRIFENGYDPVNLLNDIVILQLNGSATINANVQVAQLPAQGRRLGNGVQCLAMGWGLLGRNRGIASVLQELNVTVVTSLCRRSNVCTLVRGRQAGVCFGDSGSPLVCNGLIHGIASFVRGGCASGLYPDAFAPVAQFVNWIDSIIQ" assay_value=7%
protein="Matriptase (protein) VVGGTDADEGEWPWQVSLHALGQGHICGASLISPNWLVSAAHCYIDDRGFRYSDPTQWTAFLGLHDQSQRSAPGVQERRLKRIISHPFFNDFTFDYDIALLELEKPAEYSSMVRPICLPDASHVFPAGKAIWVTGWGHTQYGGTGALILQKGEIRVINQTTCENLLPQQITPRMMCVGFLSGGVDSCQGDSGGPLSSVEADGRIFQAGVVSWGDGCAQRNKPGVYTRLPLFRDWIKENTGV" assay_value=59%
protein="Cathepsin G (protein) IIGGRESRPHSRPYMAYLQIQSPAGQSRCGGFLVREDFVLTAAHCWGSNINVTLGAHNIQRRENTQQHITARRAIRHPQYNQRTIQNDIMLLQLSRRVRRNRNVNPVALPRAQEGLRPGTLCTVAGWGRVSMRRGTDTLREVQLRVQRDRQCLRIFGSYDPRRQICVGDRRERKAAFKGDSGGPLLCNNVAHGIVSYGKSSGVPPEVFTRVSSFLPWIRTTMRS" assay_value=0%

From here, focus on the item given below.
Consider the protein MMP-12 (protein) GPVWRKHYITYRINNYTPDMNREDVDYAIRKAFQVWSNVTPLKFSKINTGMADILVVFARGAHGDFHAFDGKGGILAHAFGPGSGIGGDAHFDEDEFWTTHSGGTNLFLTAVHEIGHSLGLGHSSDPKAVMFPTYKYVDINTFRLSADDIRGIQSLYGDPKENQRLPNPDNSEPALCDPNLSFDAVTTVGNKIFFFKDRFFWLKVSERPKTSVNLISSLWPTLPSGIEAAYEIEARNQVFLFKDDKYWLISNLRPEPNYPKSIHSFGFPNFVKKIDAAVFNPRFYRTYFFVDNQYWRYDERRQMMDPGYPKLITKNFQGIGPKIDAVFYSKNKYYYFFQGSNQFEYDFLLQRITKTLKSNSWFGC and give its recorded Percent cleavage.
0%
